Assay: qHTS for inhibitors of ER calcium dysfunction: SERCaMP assay screened against the NCATS CANVASS Library (AID 1347393); also: nearly all actives have a fitted effect of over 40% in size
Conditions: SH-SY5Y GLuc-SERCaMP (Gaussia luciferase released on ER calcium loss) secretion, thapsigargin, luminescence; series mostly up to 76.6 µM
Records with an inconclusive call do not appear. The source made the active and inactive calls. Calls follow the shape of the dose curve; as a rule, active = well fitted inhibition curve with a large enough effect; inconclusive = small, poorly fitted or top-dose-only effect; inactive = no such curve, though single readings can be large or run the other way.
Reply using exactly one outcome from Yes for active, No for inactive

Qu. What was the test verdict on C=CC(CCCCC)C1C(=O)NC(=O)C1C(=O)C1C2C(C)CC(C(=O)O)CC2CC1(O)C(=O)/C=C/C (stereo not drawn) ?
Ans. No

Qu. What was the test verdict on CO[C@H]1/C=C/CCCCC(=O)O[C@@H](/C(C)=C/[C@H](C)C(=O)C[C@H](O)CC2CC(=O)NC(=O)C2)[C@@H](C)C1 ?
Ans. No

Qu. What was the test verdict on COc1cc2c(c(O)c1O)C(=O)c1c(coc1C)C2=O ?
Ans. No

Qu. What was the test verdict on C/C(=C\[C@@H](C)CC/C=C/CC/C=C/C(=O)O)[C@H](O)[C@H](C)C(=O)CCCC1CC(=O)NC(=O)C1 ?
Ans. No

Qu. What was the test verdict on C/C(=C\[C@H](C)C(=O)C[C@H](O)CC1CC(=O)NC(=O)C1)[C@@H]1OC(=O)CCCC/C=C/[C@@H](O)C[C@@H]1C ?
Ans. No

Qu. What was the test verdict on C[C@@]1(CCC(=O)Nc2c(O)ccc(C(=O)O)c2O)C(=O)C=C[C@]23C[C@H]4C[C@H](O[C@@]4(C)C2)C31 (stereo partly drawn) ?
Ans. No

Qu. What was the test verdict on C/C=C/C(=O)C1(O)CC2CC(C(=O)O)CC(C)C2C1C1=C2C(=O)NC(=O)C2=C(CCCCC)C(C)O1 (stereo not drawn) ?
Ans. Yes

Qu. What was the test verdict on COC1C(C)OC(OCC23C[C@@H]4[C@H](C)CC[C@H]4C4(C=O)CC2C=C(C(C)C)C34C(=O)O)[C@@H](O)[C@H]1O (stereo partly drawn) ?
Ans. No
